Experiment: activity coefficient (dimensionless); of the first substance listed, at infinite dilution; xn = mol fraction of the nth substance listed
Conditions: 318.15 K; Liquid; Chromatography; x1 = 0
Recorded metric: activity coefficient

// solved cases for activity coefficient follow
# Compound, Reported measurement
records = [
    ("C1CCOC1 [tetrahydrofuran] + CCCCn1cc[n+](C)c1.N#CN=C=[N-]", 1.55),
    ("CC(C)OC(C)C [diisopropyl ether] + CCCCn1cc[n+](C)c1.N#CN=C=[N-]", 20.6),
    ("CCCCCC [hexane] + CCCCn1cc[n+](C)c1.N#CN=C=[N-]", 61.6),
    ("C#CCCC [1-pentyne] + CCCCn1cc[n+](C)c1.N#CN=C=[N-]", 3.7),
    ("CCCC=O [butanal] + CCCCn1cc[n+](C)c1.N#CN=C=[N-]", 1.61),
]

[P] CCCCCCC [heptane] + CCCCn1cc[n+](C)c1.N#CN=C=[N-]
[Q] CCC(C)(C)OC [2-methoxy-2-methylbutane] + CCCCn1cc[n+](C)c1.N#CN=C=[N-]
Challenge: Between P and Q , whose recorded activity coefficient is greater? Output the label that corresponds to your choice.
Response given: P
(P: 91, Q: 10.7)

[I] C=CCCCCCC [oct-1-ene] + CCCCn1cc[n+](C)c1.N#CN=C=[N-]
[II] C1=CCCCC1 [cyclohexene] + CCCCn1cc[n+](C)c1.N#CN=C=[N-]
[III] CCCCCCCC [octane] + CCCCn1cc[n+](C)c1.N#CN=C=[N-]
Challenge: Sort entries by activity coefficient from minimum to maximum value. Give the labels in the order specified.
Response given: II, I, III
